Data origin: patent US20250188080A1

- methodSummary: Solubility in biological buffer solutions
- Format: physicochemical
- testSettings: FeSSIF, pH 5, fessif, FeSSiF, pH 5.0; read-out: Solubility FeSSiF, pH 5.0
reportedMetric: solubility (µg/mL)
Field: numeric (µg/mL). Do not append units.

COc1cc2ncc3c(c2cc1-c1cn(C)nc1C)n(-c1c(F)cncc1OC)c(=O)n3C [Compound Y, reference compound]	201

Proceed to the following item.
Prompt: # lookup: solubility of COc1cc2ncc3c(c2cc1-c1cn(C)nc1C)n(-c1c(F)cncc1OC)c(=O)n3C (single isomer, unassigned) [Compound 1]
Response: 731

----------
- methodSummary: Microsomal stability (intrinsic clearance), human
- Type: in vitro ADME
- Design: dose or concentration left out as unconfirmed
- testSettings: liver microsomes, pH 7.4
reportedMetric: microsomal CLint (µL/min/mg)
# output: bare number, implied unit µL/min/mg

Prompt: microsomal CLint for COc1cc2ncc3c(c2cc1-c1cn(C)nc1C)n(-c1c(F)cncc1OC)c(=O)n3C [Compound Y, reference compound] ?
Response: 19

----------
- methodSummary: Solubility in biological buffer solutions
- Format: physicochemical
- testSettings: FaSSIF, pH 6.5, fassif, FaSSiF, pH 6.5; read-out: Solubility FaSSiF, pH 6.5
reportedMetric: solubility (µg/mL)
Entry rule: numbers only, all in µg/mL.

COc1cc2ncc3c(c2cc1-c1cn(C)nc1C)n(-c1c(F)cncc1OC)c(=O)n3C [Compound Y, reference compound]	52

Switching to the query record.
Prompt: Param item = COc1cc2ncc3c(c2cc1-c1cn(C)nc1C)n(-c1c(F)cncc1OC)c(=O)n3C (single isomer, unassigned) [Compound 1] ; retrieve measured solubility.
Response: 242

----------
- System: CYP1A2, CYP2C8, CYP2C9, CYP2C19, CYP2D6, CYP3A4
- methodSummary: Cytochrome P-450 enzymes (CYP) inhibition, P450-Glo
- Format: in vitro ADME
- testSettings: human
reportedMetric: IC50

Prompt: Bench note: what IC50 did COc1cc2ncc3c(c2cc1-c1cn(C)nc1C)n(-c1c(F)cncc1OC)c(=O)n3C (single isomer, unassigned) [Compound 1] show?
Response: ≥ 20 µM

----------
The next entries give measured IC50 for human phosphodiesterase-4D2 (Homo sapiens).

COc1cc2ncc3c(c2cc1-c1cn(C)nc1C)n(-c1c(F)cncc1OC)c(=O)n3C [Compound Y, reference compound]	600 nM

Prompt: Fill in: IC50 of COc1cc2ncc3c(c2cc1-c1cn(C)nc1C)n(-c1c(F)cncc1OC)c(=O)n3C (single isomer, unassigned) [Compound 1] is ___
Response: 3000 nM

----------
- testTarget: UniProt:O00408
Reported pIC50 is given for each of the following compounds.
To interpret pIC50, take it as minus log10 of a concentration measured in moles per litre.

COc1cc2ncc3c(c2cc1-c1cn(C)nc1C)n(-c1c(F)cncc1OC)c(=O)n3C [Compound Y, reference compound]	5.85
COc1cc2ncc3c(c2cc1-c1cn(C)nc1C)n(-c1c(F)cncc1OC)c(=O)n3C (single isomer, unassigned) [Compound 1]	5.66

Note: attention shifts to another entry.
Prompt: Requested read-out: pIC50. Entry: COc1cc2ncc3c(c2cc1-c1cn(C)nc1C)n(-c1c(F)cncc1OC)c(=O)n3C (single isomer, unassigned) [Compound 2]
Response: 5.41
